- assay.target: Ba/F3-FGFR3-transfected cells (Homo sapiens)
- Construct: BAF3-FGFR3 (MIN IL3) pIC50; other: minus IL3
- test.summary: Ba/F3-FGFR3 (minus IL3) cellular proliferation assay, Alamar Blue
- Type: cell-based
Entries whose BAF3-FGFR3 (MIN IL3) pIC50 is below 7 take Satisfied; entries at or above 7 take Not satisfied.

| compound | class.assignment |
| --- | --- |
| COc1cc(OC)c(F)c(N(CCO)c2ccc3ncc(-c4cnn(CCO)c4)nc3n2)c1 [Compound 233] | Not satisfied |
| COc1cc(/N=c2\ccc3ncc(-c4cnn(C)c4)nc3n2Cc2cc[nH]n2)c(F)c(OC)c1 [Compound 115] | Not satisfied |
| COc1cc(/N=c2\ccc3ncc(-c4cnn(C)c4)nc3n2CC(O)COC(C)C)c(F)c(OC)c1 (single isomer, unassigned) [Compound 77] | Not satisfied |
| COc1cc(/N=c2\ccc3ncc(-c4cnn(C)c4)nc3n2Cc2cc(C)on2)c(F)c(OC)c1 [Compound 181] | Not satisfied |
| COc1cc(OC)c(F)c(N(CC(O)c2cnn(C)c2)c2ccc3ncc(-c4cnn(C)c4)nc3n2)c1 (stereo not drawn) [Compound 244] | Satisfied |
| COc1cc(OC)c(F)c(N(CC(C)(C)O)c2ccc3ncc(-c4cnn(C)c4)nc3n2)c1F [Compound 278] | Not satisfied |

----------
The entries below come with measured BAF3-FGFR4 pIC50 values attached.
- assay.target: Ba/F3-FGFR4-transfected cells (Homo sapiens, UniProt P22455)
- Sequence (P22455 whole entry, change not shown): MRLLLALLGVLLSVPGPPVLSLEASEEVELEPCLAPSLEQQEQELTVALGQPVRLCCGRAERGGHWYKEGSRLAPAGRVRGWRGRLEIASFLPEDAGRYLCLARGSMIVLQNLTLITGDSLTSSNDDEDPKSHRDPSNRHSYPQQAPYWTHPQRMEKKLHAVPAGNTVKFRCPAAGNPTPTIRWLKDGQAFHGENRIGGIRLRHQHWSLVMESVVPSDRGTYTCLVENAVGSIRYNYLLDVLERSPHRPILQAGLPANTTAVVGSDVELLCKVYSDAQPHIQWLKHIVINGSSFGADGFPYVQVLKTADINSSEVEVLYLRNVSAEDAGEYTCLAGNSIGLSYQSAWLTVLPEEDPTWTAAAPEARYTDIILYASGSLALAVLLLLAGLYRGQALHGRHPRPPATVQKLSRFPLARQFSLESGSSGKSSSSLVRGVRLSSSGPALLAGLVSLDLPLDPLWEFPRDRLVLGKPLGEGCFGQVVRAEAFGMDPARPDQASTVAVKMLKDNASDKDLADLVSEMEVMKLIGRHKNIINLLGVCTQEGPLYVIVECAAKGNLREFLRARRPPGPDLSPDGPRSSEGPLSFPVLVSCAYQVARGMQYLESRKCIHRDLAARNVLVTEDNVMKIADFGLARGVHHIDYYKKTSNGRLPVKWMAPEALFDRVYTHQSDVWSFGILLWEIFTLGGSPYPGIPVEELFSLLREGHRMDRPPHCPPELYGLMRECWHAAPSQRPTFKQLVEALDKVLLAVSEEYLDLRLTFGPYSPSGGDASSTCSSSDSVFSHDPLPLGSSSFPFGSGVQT
- test.summary: Ba/F3-FGFR4 cellular proliferation assay, Alamar Blue
- Assay type: cell-based

| molecule | assay.target | BAF3-FGFR4 pIC50 |
| --- | --- | --- |
| COc1cc(OC)c(F)c(N(CC2CCC(=O)N2C)c2ccc3ncc(-c4cnn(C)c4)nc3n2)c1 (stereo not shown) [Compound 159] | Ba/F3-FGFR4-transfected cells (Homo sapiens, UniProt P22455) | 6.20 |
| COc1cc(OC)c(F)c(N(CC(O)c2cnn(C)c2)c2ccc3ncc(-c4cnn(C)c4)nc3n2)c1 (stereo not shown) | Ba/F3-FGFR4-transfected cells (Homo sapiens, UniProt P22455) | 6.11 |
| COc1cc(OC)c(F)c(N(Cc2ncc[nH]2)c2ccc3ncc(-c4cnn(C(CO)CCl)c4)nc3n2)c1 (stereo not shown) | Ba/F3-FGFR4-transfected cells (Homo sapiens, UniProt P22455) | 7.92 |
| COc1cc(/N=c2\ccc3ncc(-c4cnn(C)c4)nc3n2CC(C)(C)O)cc(OC)c1 | Ba/F3-FGFR4-transfected cells (Homo sapiens, UniProt P22455) | 6.37 |
| COc1cc(OC)c(F)c(N(CC#N)c2ccc3ncc(-c4cnn(C)c4)nc3n2)c1F | Ba/F3-FGFR4-transfected cells (Homo sapiens, UniProt P22455) | 7.61 |
| COc1cc(OC)c(F)c(N(Cc2ncc[nH]2)c2ccc3ncc(-c4cnn(CC(C)(C)O)c4)nc3n2)c1 | Ba/F3-FGFR4-transfected cells (Homo sapiens, UniProt P22455) | 7.87 |

----------
Measured IC50 by item
- assay.target: FGFR2 (h) (Homo sapiens, UniProt P21802)
- Sequence (P21802 22-821): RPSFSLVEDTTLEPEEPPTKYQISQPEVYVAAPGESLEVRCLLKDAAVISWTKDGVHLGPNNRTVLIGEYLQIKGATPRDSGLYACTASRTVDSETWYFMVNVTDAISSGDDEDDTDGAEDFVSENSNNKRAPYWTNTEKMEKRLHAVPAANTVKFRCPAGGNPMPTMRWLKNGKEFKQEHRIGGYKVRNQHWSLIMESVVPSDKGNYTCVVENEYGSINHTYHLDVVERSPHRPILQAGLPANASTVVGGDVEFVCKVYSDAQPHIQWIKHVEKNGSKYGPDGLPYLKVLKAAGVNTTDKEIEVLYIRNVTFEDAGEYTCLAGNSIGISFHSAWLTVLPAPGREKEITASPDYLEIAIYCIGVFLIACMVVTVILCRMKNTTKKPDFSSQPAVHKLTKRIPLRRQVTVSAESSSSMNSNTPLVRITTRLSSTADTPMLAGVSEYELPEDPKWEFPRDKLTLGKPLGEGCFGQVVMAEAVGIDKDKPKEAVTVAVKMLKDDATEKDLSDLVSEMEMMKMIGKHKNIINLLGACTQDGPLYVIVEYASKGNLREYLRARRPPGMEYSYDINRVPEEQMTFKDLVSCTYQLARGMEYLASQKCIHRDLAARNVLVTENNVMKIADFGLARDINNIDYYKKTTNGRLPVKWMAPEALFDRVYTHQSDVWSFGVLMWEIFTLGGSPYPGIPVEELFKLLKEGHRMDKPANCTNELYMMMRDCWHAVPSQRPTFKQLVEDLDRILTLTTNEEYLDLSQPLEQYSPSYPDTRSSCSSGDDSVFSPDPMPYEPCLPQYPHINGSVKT
- test.summary: FGFR2 (enzymatic assay), TR-FRET
- Assay type: biochemical
- experimental.parameters: enzymatic assay; read-out: FGFR 2 pIC50 (converted)
- Method: In a final reaction volume of 30 μL, FGFR2 (h) (150 ng/ml) was incubated with 50 mM HEPES pH 7.5, 6 mM MnCl2, 1 mM DTT, 0.1 mM Na3VO4, 0.01% Triton-X-100, 500 nM Btn-Flt3 and 0.4 μM ATP in the presence of compound (1% DMSO final).

| compound | IC50 (nM) |
| --- | --- |
| COc1cc(OC)c(F)c(N(CC2CCC(=O)N2CCO)c2ccc3ncc(-c4cnn(C)c4)nc3n2)c1 (stereo not shown) [Compound 194] | 12 |
| COc1cc(OC)cc(N(CCO)c2ccc3ncc(-c4ccncc4)nc3n2)c1 [Compound 213] | 5.62 |
| COc1cc(/N=c2\ccc3ncc(-c4cnn(C)c4)nc3n2CCN2CCOCC2)c(F)c(OC)c1 [Compound 148] | 1.91 |
| COc1cc(OC)c(F)c(N(Cc2ncc[nH]2)c2ccc3ncc(N4CCOCC4)nc3n2)c1F [Compound 215] | 2.09 |

----------
- assay.target: FGFR4 (h) (Homo sapiens)
- test.summary: FGFR4 (enzymatic assay), TR-FRET
- Assay type: biochemical
- experimental.parameters: FGFR 4 pIC50, enzymatic assay
quantity.measured: log10 IC50 (log10 of the value in nM)

| compound | assay.target | log10 IC50 |
| --- | --- | --- |
| COc1cc(OC)c(F)c(N(Cc2nc(C)c[nH]2)c2ccc3ncc(-c4cnn(C)c4)nc3n2)c1 [Compound 135] | FGFR4 (h) (Homo sapiens) | 0.10 |
| COc1cc(OC)cc(N(CC(C)(C)O)c2ccc3ncc(-c4cnn(C)c4)nc3n2)c1 [Compound 276] | FGFR4 (h) (Homo sapiens) | 1.84 |
| COc1cc(OC)c(F)c(N(CC2CCOC2)c2ccc3ncc(-c4cnn(C)c4)nc3n2)c1 (single isomer, unassigned) [Compound 171] | FGFR4 (h) (Homo sapiens) | 0.57 |
| Cn1cc(-c2cnc3ccc(N(Cc4ncc[nH]4)c4c(F)c(F)cc(F)c4F)nc3n2)cn1 [Compound 175] | FGFR4 (h) (Homo sapiens) | 0.68 |
| COc1cc(/N=c2\ccc3ncc(-c4cnn(C)c4)nc3n2CC2COC(=O)N2)c(F)c(OC)c1 (stereo not drawn) [Compound 123] | FGFR4 (h) (Homo sapiens) | 0.44 |
| COc1cc(OC)cc(N(CCN2CCCC2=O)c2ccc3ncc(-c4cnn(C)c4)nc3n2)c1 [Compound 151] | FGFR4 (h) (Homo sapiens) | 1.96 |
| COc1cc(OC)cc(N(CC2COC2)c2ccc3ncc(-c4cnn(C)c4)nc3n2)c1 [Compound 142] | FGFR4 (h) (Homo sapiens) | 1.48 |
| COc1cc(OC)c(F)c(N(CC(C)(C)O)c2ccc3ncc(-c4cnn(C)c4)nc3n2)c1 [Compound 245] | FGFR4 (h) (Homo sapiens) | 1.20 |
| COc1cc(OC)c(F)c(N(CC(O)COC(C)C)c2ccc3ncc(-c4cnn(CC(O)COC(C)C)c4)nc3n2)c1 (single isomer, unassigned) [Compound 252] | FGFR4 (h) (Homo sapiens) | 0.71 |
| COc1cc(OC)c(F)c(N(Cc2ncco2)c2ccc3ncc(-c4cnn(C)c4)nc3n2)c1 [Compound 177] | FGFR4 (h) (Homo sapiens) | 0.39 |
| COc1cc(OC)cc(N(Cc2nnc(N)o2)c2ccc3ncc(-c4cnn(C)c4)nc3n2)c1 [Compound 188] | FGFR4 (h) (Homo sapiens) | 0.21 |
| COc1ccc(Cl)c(N(CC2CCC(=O)N2)c2ccc3ncc(-c4cnn(C)c4)nc3n2)c1Cl (stereo not drawn) [Compound 93] | FGFR4 (h) (Homo sapiens) | 2.90 |
| COc1cc(OC)cc(N(Cc2ncc[nH]2)c2ccc3ncc(-c4ccccc4)nc3n2)c1 [Compound 152] | FGFR4 (h) (Homo sapiens) | 0.15 |
| CCOCc1c[nH]c(CN(c2ccc3ncc(-c4cnn(C)c4)nc3n2)c2cc(OC)cc(OC)c2F)n1 [Compound 206] | FGFR4 (h) (Homo sapiens) | 0.47 |

----------
Below is a list of entries, each paired with its recorded BAF3-FGFR3 (MIN IL3) pIC50 value.
- assay.target: Ba/F3-FGFR3-transfected cells (Homo sapiens, UniProt P22607)
- Construct: BAF3-FGFR3 (MIN IL3) pIC50; other: minus IL3
- Sequence (P22607 whole entry, change not shown): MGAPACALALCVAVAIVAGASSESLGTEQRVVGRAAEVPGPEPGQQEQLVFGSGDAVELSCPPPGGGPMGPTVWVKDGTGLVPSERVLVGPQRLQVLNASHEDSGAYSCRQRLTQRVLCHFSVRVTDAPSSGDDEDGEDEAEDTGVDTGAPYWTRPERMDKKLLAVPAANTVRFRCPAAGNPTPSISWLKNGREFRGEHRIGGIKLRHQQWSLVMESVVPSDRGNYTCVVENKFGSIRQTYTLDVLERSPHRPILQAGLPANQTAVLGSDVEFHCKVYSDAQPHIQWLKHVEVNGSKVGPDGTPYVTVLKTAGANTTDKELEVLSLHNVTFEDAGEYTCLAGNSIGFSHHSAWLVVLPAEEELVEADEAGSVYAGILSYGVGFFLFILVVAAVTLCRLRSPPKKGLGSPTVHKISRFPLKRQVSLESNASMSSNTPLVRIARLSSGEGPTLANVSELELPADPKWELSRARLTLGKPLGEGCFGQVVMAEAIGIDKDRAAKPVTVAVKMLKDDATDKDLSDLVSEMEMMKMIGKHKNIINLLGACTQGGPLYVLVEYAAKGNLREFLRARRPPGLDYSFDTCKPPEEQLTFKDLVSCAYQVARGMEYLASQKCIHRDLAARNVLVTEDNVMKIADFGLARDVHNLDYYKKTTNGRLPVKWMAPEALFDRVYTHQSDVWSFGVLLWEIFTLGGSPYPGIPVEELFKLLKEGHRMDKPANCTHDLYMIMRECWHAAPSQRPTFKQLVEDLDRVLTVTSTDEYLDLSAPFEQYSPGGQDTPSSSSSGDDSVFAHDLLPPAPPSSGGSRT
- test.summary: Ba/F3-FGFR3 (minus IL3) cellular proliferation assay, Alamar Blue
- Format: cell-based
Structures can show the parent of a compound that is named as a salt.
quantity.measured: BAF3-FGFR3 (MIN IL3) pIC50

| molecule | assay.target | measured.result |
| --- | --- | --- |
| COc1cc(OC)cc(N(Cc2ncc[nH]2)c2ccc3ncc(-c4cnn(C)c4)nc3n2)c1 [24-phosphate salt] | Ba/F3-FGFR3-transfected cells (Homo sapiens, UniProt P22607) | 7.74 |
| COc1cc(/N=c2\ccc3ncc(-c4cnn(C)c4)nc3n2CC2CCOC2)c(F)c(OC)c1 (single isomer, unassigned) [Compound 169] | Ba/F3-FGFR3-transfected cells (Homo sapiens, UniProt P22607) | 7.44 |

----------
- assay.target: UniProt P22455
- test.summary: FGFR4 (enzymatic assay), TR-FRET
- Format: biochemical
- experimental.parameters: FGFR 4 pIC50, enzymatic assay; average values if tested multiple times
pIC50: −log10 of the molar value. Where a name gives a salt, the structure may show the parent alone.
Consider the following molecules and their measured pIC50 readings.

| molecule | pIC50 |
| --- | --- |
| COc1cc(OC)c(F)c(N(Cc2nc3c([nH]2)CCNC3)c2ccc3ncc(-c4cnn(C)c4)nc3n2)c1 | 8.46 |
| COc1cc(OC)c(F)c(N(Cc2ncc[nH]2)c2ccc3ncc(-c4cnn(C)c4)nc3n2)c1 [23-lactate salt] | 8.96 |
| COc1cc(OC)c(F)c(N(CC2CCC(=O)N2)c2ccc3ncc(-c4cnn(C)c4)nc3n2)c1F (stereo not drawn) [Compound 192] | 8.68 |
| COc1cc(OC)cc(N(CCNC(C)C)c2ccc3ncc(-c4cnn(C)c4)nc3n2)c1 | 7.60 |
| COc1cc(OC)c(F)c(N(CC(O)COC(C)C)c2ccc3ncc(-c4cnn(C)c4)nc3n2)c1 (single isomer, unassigned) [Compound 79] | 8.70 |
| COc1cc(OC)c(F)c(N(CCO)c2ccc3ncc(-c4cnn(C)c4)nc3n2)c1F | 8.40 |
| COc1cc(OC)c(Cl)c(N(C[C@H]2CCC(=O)N2)c2ccc3ncc(-c4cnn(C)c4)nc3n2)c1Cl | 7.58 |
| CNCCn1/c(=N/c2c(F)c(OC)cc(OC)c2F)ccc2ncc(-c3cnn(C)c3)nc21 | 8.10 |
| COc1cc(OC)c(Cl)c(N(CC2CCC(=O)N2)c2ccc3ncc(-c4cnn(C)c4)nc3n2)c1Cl (single isomer, unassigned) | 7.37 |
| COc1cc(OC)cc(N(Cc2ncc[nH]2)c2ccc3ncc(-c4cnn(C)c4)nc3n2)c1 [24-fumarate salt] | 8.92 |
| CNCCN(c1ccc2ncc(-c3cnn(C)c3)nc2n1)c1c(F)c(OC)cc(OC)c1F | 8.19 |
| CNCCN(c1ccc2ncc(-c3cnn(C)c3)nc2n1)c1c(Cl)ccc(OC)c1Cl | 6.03 |
| COc1cc(OC)cc(N(Cc2ncc[nH]2)c2ccc3ncc(-c4cnn(C)c4)nc3n2)c1 (racemic) [24-DL-tartrate salt] | 8.95 |
| COc1cc(OC)c(F)c(N(Cc2nc[nH]c2C)c2ccc3ncc(-c4cnn(C)c4)nc3n2)c1 | 8.57 |
